# Assay Explanation: clinical
# Experimental Context: human, in vivo, 400 mg, Cmax, observed Geometric mean
Measured Property: Cmax
I'd appreciate it if you wrote the number followed by its unit.

stdin: Bench note: what Cmax did CC(C)Nc1nc2cc(Cl)c(Cl)cc2n1[C@H]1O[C@@H](CO)[C@H](O)[C@@H]1O show?
stdout: 19400 ng/mL

====

# Assay Explanation: Observed clinical interaction of maribavir with ketoconazole in healthy subjects
# Type: in vivo, human
# Experimental Context: human, in vivo, 400 mg, Cmax, observed Mean
Measured Property: Cmax (µg/mL)
# output: bare number, implied unit µg/mL

stdin: Bench note: what Cmax did CC(C)Nc1nc2cc(Cl)c(Cl)cc2n1[C@H]1O[C@@H](CO)[C@H](O)[C@@H]1O show?
stdout: 21.8

====

# Assay Explanation: clinical
# Experimental Context: human, in vivo, po, 400 mg, Cmax, observed Mean
# Method: A combination of in vitro data and clinical pharmacokinetic data obtained following a single dose of 400 mg maribavir were used to develop the PBPK model. […] The Cmax was marginally under predicted, which could be expected because the PBPK model was optimized for better prediction of C12h. A comparison of observed and predicted plasma concentrations of maribavir following single oral doses of 800 mg and 1600 mg to healthy patients were. […]
Measured Property: Cmax (ng/mL)
# output: bare number, implied unit ng/mL

stdin: Bench note: what Cmax did CC(C)Nc1nc2cc(Cl)c(Cl)cc2n1[C@H]1O[C@@H](CO)[C@H](O)[C@@H]1O show?
stdout: 16700

====

# Assay Explanation: Observed clinical interaction of maribavir with ketoconazole in healthy subjects
# Format: in vivo, human
# Experimental Context: human, in vivo, 400 mg, Cmax, observed Geometric mean
Measured Property: Cmax (ng/mL)
# output: bare number, implied unit ng/mL

stdin: Bench note: what Cmax did CC(C)Nc1nc2cc(Cl)c(Cl)cc2n1[C@H]1O[C@@H](CO)[C@H](O)[C@@H]1O [maribavir] show?
stdout: 21300
